Exercise: state measured pEC50 for each of the molecules provided.
- System: Jurkat cells
- run description: IL-2 secretion assay in CD3/CD28-activated Jurkat cells (AlphaLISA)
- Assay type: cell-based
- condition notes: Homo sapiens, CD3/CD28 T Cell Activator, 24 h, IL-2 AlphaLISA
pEC50: −log10 of the molar value.

Query block: Which pEC50 is listed for C[C@H]1CCCN(Cc2cc3c(C4CC4)cn(-c4cccc(C5(Cc6nncn6C)COC5)c4)c(=O)c3[nH]2)C1 ?
Result block: > 7.00

Query block: Requested read-out: pEC50. Entry: Cn1cnnc1[C@]1(c2cccc(-n3cc(C4CC4)c4nc[nH]c4c3=O)c2)C[C@@H](C)C1 (single isomer, unassigned)
Result block: 5.30 to 6.00

Query block: So what's the measured pEC50 for this one? CC1CC(c2cccc(-n3cc(C4CC4)c4cc(CN[C@H]5CCOC5)[nH]c4c3=O)c2)(c2nncn2C)C1 (stereo partly drawn)
Result block: 6.00 to 7.00

Query block: If you can, please state the reported pEC50 value of Cn1cnnc1[C@]1(c2cccc(-n3cc(C4CC4)c4cn[nH]c4c3=O)c2)C[C@H](C)C1 .
Result block: 5.30 to 6.00

Query block: What value of pEC50 has been reported for the following molecule? C[C@H]1CCCN(Cc2cc3c(C4CC4)cn(-c4cccc(C5(c6nncn6C(F)F)CC6(CC6)C5)c4)c(=O)c3[nH]2)C1
Result block: > 7.00

Query block: Given the entry C[C@H]1CCCN(Cc2cc3c(C(F)(F)F)cn(-c4cccc(C5(c6nncn6C)CC6(CC6)C5)c4)c(=O)c3[nH]2)C1 , report its measured pEC50.
Result block: > 7.00

Query block: Item C[C@H]1CCCN(Cc2cc3c(C4CC4)cn(-c4cccc([C@]5(c6nncn6C)C[C@@H](C)C5)c4)c(=O)c3[nH]2)C1 has what recorded pEC50?
Result block: > 7.00

Query block: Any idea what its pEC50 is? The molecule is C[C@H]1CCCN(Cc2cc3c(C4CC4)cn(-c4cccc(C5(c6nncn6C6CC6)CC6(CC6)C5)c4)c(=O)c3[nH]2)C1
Result block: 6.00 to 7.00

Query block: GET /values?readout=pEC50&item= Cn1cnnc1C1(c2cccc(-n3cc(C4CC4)c4cc(CN[C@H]5COC[C@@H]5O)[nH]c4c3=O)c2)CC(F)(F)C1
Result block: < 5.30

Query block: Endpoint output: pEC50 of Cn1cnnc1C1(c2cccc(-n3cc(C4CC4)c4cc(CN5CCC(F)(F)C5)[nH]c4c3=O)c2)CC(F)(F)C1 . Value?
Result block: 6.00 to 7.00

Query block: Query (molecule): Cn1cnnc1[C@]1(c2cccc(-n3cc(C#N)c4cc[nH]c4c3=O)c2)C[C@H](C)C1 ; field requested: pEC50
Result block: 5.30 to 6.00

Query block: State the recorded pEC50 for this entry: C[C@H]1CCCN(Cc2cc3c(C4CC4)cn(-c4cccc(C(F)c5nncn5C)c4)c(=O)c3[nH]2)C1 (stereo partly drawn)
Result block: 6.00 to 7.00

Query block: Consider the molecule shown here: Cn1cnnc1C1(c2cccc(-n3cc(C4CC4)c4cc(CNCC5(O)CCC5)[nH]c4c3=O)c2)CC(F)(F)C1 What is its recorded pEC50?
Result block: 6.00 to 7.00

Query block: Looking for the measured pEC50 of CC1CC(c2cccc(-n3cc(C4CC4)c4cc(CN5CCN(C)[C@H](C)C5)[nH]c4c3=O)c2)(c2nncn2C)C1 (stereo partly drawn) , can you help?
Result block: 5.30 to 6.00

Query block: Fill in the blank: the reported pEC50 of CC1CC(c2cccc(-n3cc(C4CC4)c4cc(CN[C@@H]5CCCOC5)[nH]c4c3=O)c2)(c2nncn2C)C1 (stereo partly drawn) is ____.
Result block: > 7.00

Query block: Form field: reported pEC50 of C[C@H]1CCCN(Cc2cc3c(C4CC4)cn(-c4cccc(C5(c6ncco6)CC(F)(F)C5)c4)c(=O)c3[nH]2)C1
Result block: 6.00 to 7.00

Query block: Would you mind telling me what pEC50 value was observed for CC(c1cccc(-n2cc(C3CC3)c3cc(CN4CCC[C@H](C)C4)[nH]c3c2=O)c1)c1nncn1C (stereo partly drawn) ?
Result block: > 7.00

Query block: Fill in the blank: the reported pEC50 of CC1CC(c2cccc(-n3cc(C4CC4)c4c(S(C)(=O)=O)c(CN5CCC[C@H](C)C5)[nH]c4c3=O)c2)(c2nncn2C)C1 (mixture of isomers) is ____.
Result block: > 7.00

Query block: Value lookup for pEC50; key = Cc1nnc(C2(c3cccc(-n4cc(C5CC5)c5cc(CN6CCC[C@H](C)C6)[nH]c5c4=O)c3)CC(F)(F)C2)n1C
Result block: 5.30 to 6.00

Query block: Any idea what its pEC50 is? The molecule is Cn1cnnc1C1(c2cccc(-n3cc(C4CC4)c4cc[nH]c4c3=O)c2)CCC1
Result block: 5.30 to 6.00

Query block: Which pEC50 reading was recorded for the molecule C[C@H]1CCCN(Cc2cc3c(C4CC4)cn(-c4cccc([C@]5(c6nncn6C)C[C@@H](F)C5)c4)c(=O)c3[nH]2)C1 ?
Result block: > 7.00

Query block: Form field: reported pEC50 of Cn1cnnc1[C@]1(c2cccc(-n3cc(C4CC4)c4c(C#N)c[nH]c4c3=O)c2)C[C@H](C)C1 (single isomer, unassigned)
Result block: 6.00 to 7.00

Query block: // query pEC50 value for entry Cn1cnnc1[C@]1(c2cccc(-n3cc(C(F)(F)F)c4cc[nH]c4c3=O)c2)C[C@@H](C)C1 (single isomer, unassigned)
Result block: 6.00 to 7.00

Query block: Param item = Cn1nccc1-c1c[nH]c2c(=O)n(-c3cccc([C@]4(c5nncn5C)C[C@@H](C)C4)c3)cc(C3CC3)c12 ; retrieve measured pEC50.
Result block: 5.30 to 6.00

Query block: Any idea what pEC50 was measured for C[C@H]1CCCN(Cc2nc3c(C(F)(F)F)cn(-c4cccc(C5(c6nncn6C)CC(F)(F)C5)c4)c(=O)c3[nH]2)C1 ?
Result block: > 7.00

Query block: Item under review: C[C@H]1CCCN(Cc2cc3c(C4CC4)cn(-c4cccc(C(O)(c5nncn5C)C(F)(F)F)c4)c(=O)c3[nH]2)C1 (stereo partly drawn) . Reported pEC50?
Result block: 6.00 to 7.00

Query block: Param item = Cn1cnnc1C1(c2cccc(-n3cc(C4CC4)c4cc(CNC5(CF)CCC5)[nH]c4c3=O)c2)CC(F)(F)C1 ; retrieve measured pEC50.
Result block: 6.00 to 7.00

###

pIC50: −log10 of the molar value.
Record set of pIC50 for target or system Cbl-b (Homo sapiens, UniProt Q13191).

Query block: Recorded pIC50 for CO[C@H]1C[C@](c2cccc(-n3cc(C4CC4)c4cc(CN5CCC[C@H](C)C5)[nH]c4c3=O)c2)(c2nncn2C)C1 [Example 101] with Cbl-b (Homo sapiens, UniProt Q13191), please?
Result block: > 7.00

Query block: API: value(readout= pIC50, system= Cbl-b (Homo sapiens, UniProt Q13191), query= CC1CC(c2cccc(-n3cc(C4CC4)c4cc(CNCCOC(F)(F)F)[nH]c4c3=O)c2)(c2nncn2C)C1 (stereo not shown) [Example 46] )
Result block: > 7.00

Query block: # value lookup — system Cbl-b (Homo sapiens, UniProt Q13191), readout pIC50, item Cc1cn(-c2cccc([C@]3(c4nncn4C)C[C@@H](C)C3)c2)c(=O)c2[nH]ccc12 [Example 29]
Result block: 6.00 to 7.00

Query block: Notebook: pull reported pIC50 for Cbl-b (Homo sapiens, UniProt Q13191), entry CC1CC(c2cccc(-n3cc(C4CC4)c4c(CO)c[nH]c4c3=O)c2)(c2nncn2C)C1 (mixture of isomers) [Example 16]
Result block: 6.00 to 7.00

Query block: Entry CC1CC(c2cccc(-n3cc(C4CC4)c4c(-c5cnn(C)c5)c[nH]c4c3=O)c2)(c2nncn2C)C1 (mixture of isomers) [Example 131] , system Cbl-b (Homo sapiens, UniProt Q13191): what pIC50 was measured?
Result block: > 7.00

Query block: Identify the measured pIC50 of C[C@H]1CCCN(Cc2cc3c(C4CC4)cn(-c4cccc([C@]5(c6nncn6C(F)F)C[C@H](OC(F)F)C5)c4)c(=O)c3[nH]2)C1 [Example 151] for Cbl-b (Homo sapiens, UniProt Q13191).
Result block: > 7.00

Query block: Give the reported pIC50 for Cn1cnnc1C1(c2cccc(-n3cc(C(F)(F)F)c4c(C#N)c[nH]c4c3=O)c2)CC2(CC2)C1 [Example 137] (system: Cbl-b (Homo sapiens, UniProt Q13191)).
Sequence (Q13191 whole entry, species assumed): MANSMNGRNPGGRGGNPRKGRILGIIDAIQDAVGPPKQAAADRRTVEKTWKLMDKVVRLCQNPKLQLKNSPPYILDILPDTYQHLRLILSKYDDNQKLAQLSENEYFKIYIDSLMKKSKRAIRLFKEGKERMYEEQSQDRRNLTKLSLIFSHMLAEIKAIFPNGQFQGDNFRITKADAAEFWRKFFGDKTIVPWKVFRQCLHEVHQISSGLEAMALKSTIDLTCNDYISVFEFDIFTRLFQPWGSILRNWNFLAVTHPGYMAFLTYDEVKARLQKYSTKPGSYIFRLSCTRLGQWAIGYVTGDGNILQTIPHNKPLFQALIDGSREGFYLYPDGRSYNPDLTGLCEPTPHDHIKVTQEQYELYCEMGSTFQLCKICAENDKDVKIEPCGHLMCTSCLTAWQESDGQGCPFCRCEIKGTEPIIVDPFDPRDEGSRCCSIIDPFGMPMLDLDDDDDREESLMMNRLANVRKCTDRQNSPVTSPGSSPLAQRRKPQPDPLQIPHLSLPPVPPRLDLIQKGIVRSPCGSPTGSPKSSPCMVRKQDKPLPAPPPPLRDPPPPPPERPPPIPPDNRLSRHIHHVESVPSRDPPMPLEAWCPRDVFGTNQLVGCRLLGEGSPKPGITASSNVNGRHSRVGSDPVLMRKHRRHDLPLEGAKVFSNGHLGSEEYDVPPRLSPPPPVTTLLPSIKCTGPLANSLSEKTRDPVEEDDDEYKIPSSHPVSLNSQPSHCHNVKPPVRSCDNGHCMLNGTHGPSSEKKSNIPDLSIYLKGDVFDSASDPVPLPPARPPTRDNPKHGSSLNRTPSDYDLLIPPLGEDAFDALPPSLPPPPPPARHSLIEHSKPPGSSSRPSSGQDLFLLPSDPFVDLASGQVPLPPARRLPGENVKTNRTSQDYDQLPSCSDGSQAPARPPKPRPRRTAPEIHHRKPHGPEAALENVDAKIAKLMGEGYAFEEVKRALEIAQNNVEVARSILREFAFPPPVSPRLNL
Result block: > 7.00

Query block: // lookup pIC50 | system=Cbl-b (Homo sapiens, UniProt Q13191) | key= CC1CC(c2cccc(-n3cc(C4CC4)c4cc(CN5CC6CCC5C6)[nH]c4c3=O)c2)(c2nncn2C)C1 (stereo not shown) [Example 52]
Result block: > 7.00

Query block: Under Cbl-b (Homo sapiens, UniProt Q13191): pIC50 value of Cn1cncc1-c1c[nH]c2c(=O)n(-c3cccc([C@]4(c5nncn5C)C[C@H](C)C4)c3)cc(C3CC3)c12 (single isomer, unassigned) [Example 35] ?
Result block: > 7.00

Query block: # value lookup — system Cbl-b (Homo sapiens, UniProt Q13191), readout pIC50, item Cn1cnnc1[C@]1(c2cccc(-n3cc(C4CC4)c4c(C(F)(F)F)c[nH]c4c3=O)c2)C[C@H](C)C1 [Example 18]
Result block: 6.00 to 7.00

Query block: pIC50 of Cn1cnnc1[C@]1(c2cccc(-n3cc(C4CC4)c4c(C(=O)O)c[nH]c4c3=O)c2)C[C@@H](C)C1 (single isomer, unassigned) [Example 20] on Cbl-b (Homo sapiens, UniProt Q13191)?
Result block: 5.30 to 6.00

Query block: Which measured pIC50 belongs to C[C@H]1CCCN(Cc2cc3c(S(C)(=O)=O)cn(-c4cccc([C@]5(c6nncn6C)C[C@@H](C)C5)c4)c(=O)c3[nH]2)C1 (single isomer, unassigned) [Example 107] , tested on Cbl-b (Homo sapiens, UniProt Q13191)?
Result block: > 7.00

Query block: Kindly state the measured pIC50 obtained for CC1CC(c2cccc(-n3cc(C4CC4)c4cc(CN(C)C5CC5)[nH]c4c3=O)c2)(c2nncn2C)C1 (stereo not shown) [Example 54] with Cbl-b (Homo sapiens, UniProt Q13191).
Result block: > 7.00

Query block: Test system Cbl-b (Homo sapiens, UniProt Q13191); read-out pIC50; what value for CC(O)C1(NCc2cc3c(C4CC4)cn(-c4cccc(C5(c6nncn6C)CC(F)(F)C5)c4)c(=O)c3[nH]2)CC1 (stereo not shown) [Example 84] ?
Result block: > 7.00

Query block: For the record CO[C@H]1C[C@](c2cccc(-n3cc(C4CC4)c4cc(CN5CCC6(CC6)C5)[nH]c4c3=O)c2)(c2nncn2C)C1 [Example 100] , what value of pIC50 is listed for Cbl-b (Homo sapiens, UniProt Q13191)?
Result block: > 7.00

Query block: Provide value of pIC50 for this record tested with Cbl-b (Homo sapiens, UniProt Q13191): CC1CC(c2cccc(-n3cc(C(F)(F)F)c4c(S(C)(=O)=O)c[nH]c4c3=O)c2)(c2nncn2C)C1 (mixture of isomers) [Example 139]
Result block: > 7.00

Query block: Test system Cbl-b (Homo sapiens, UniProt Q13191); read-out pIC50; what value for C[C@H]1CCCN(Cc2cc3ncn(-c4cccc([C@]5(c6nncn6C(F)F)C[C@H](F)C5)c4)c(=O)c3[nH]2)C1 [Example 149] ?
Result block: > 7.00

Query block: # query: pIC50 | item C[C@H]1CCCN(Cc2cc3c(C4CC4)cn(-c4cccc(C5(c6nncn6C(F)F)CC6(CC6)C5)c4)c(=O)c3[nH]2)C1 [Example 150] | system: Cbl-b (Homo sapiens, UniProt Q13191)
Result block: > 7.00

Query block: # get_value(readout= pIC50, system= Cbl-b (Homo sapiens, UniProt Q13191)) for Cn1cnnc1[C@]1(c2cccc(-n3ccc4cc[nH]c4c3=O)c2)C[C@H](C)C1 (single isomer, unassigned) [Example 30]
Result block: 5.30 to 6.00

Query block: Provide the documented pIC50 with Cbl-b (Homo sapiens, UniProt Q13191) as the system for Cn1cnnc1[C@]1(c2cccc(-n3cc(C4CC4)c4[nH]c(=O)[nH]c4c3=O)c2)C[C@H](C)C1 (single isomer, unassigned) [Example 117]
Result block: 6.00 to 7.00

Query block: Field: pIC50 (Cbl-b (Homo sapiens, UniProt Q13191)). Entry: CC1CC(c2cccc(-n3cc(C4CC4)c4cc(CN(C)C)[nH]c4c3=O)c2)(c2nncn2C)C1 (stereo not shown) [Example 55]
Result block: > 7.00

Query block: Which pIC50 is reported with Cbl-b (Homo sapiens, UniProt Q13191) for this entry: CC1CC(c2cccc(-n3cc(C4CC4)c4cc(CN5CC(F)(F)C5)[nH]c4c3=O)c2)(c2nncn2C)C1 (stereo not shown) [Example 58] ?
Result block: > 7.00

Query block: Cbl-b (Homo sapiens, UniProt Q13191) / pIC50 / C[C@H]1CCCN(Cc2cc3c(C4CC4)cn(-c4cccc(C5(c6nncn6C)CC(F)(F)C5)c4)c(=O)c3[nH]2)C1 [Example 78] : value?
Result block: > 7.00

Query block: Give pIC50 (Cbl-b (Homo sapiens, UniProt Q13191)) of the following compound: C[C@H]1CCCN(Cc2cc3c(C4CC4)cn(-c4cccc(C5(Cc6nncn6C)COC5)c4)c(=O)c3[nH]2)C1 [Example 75]
Result block: > 7.00

Query block: Test system Cbl-b (Homo sapiens, UniProt Q13191); read-out pIC50; what value for CC1CC(c2cccc(-n3cc(C4CC4)c4cc(CN[C@@H]5CCCOC5)[nH]c4c3=O)c2)(c2nncn2C)C1 (stereo partly shown) [Example 49] ?
Result block: > 7.00

Reference source: patent US20260028336A1
